B1: tRNA (parent)
chain: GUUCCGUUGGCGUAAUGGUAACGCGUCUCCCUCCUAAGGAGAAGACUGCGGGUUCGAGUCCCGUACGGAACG

- Variants of: B1
- test protocol: yeast fitness relative to wild type (ratio to wild type); higher = fitter; tRNA-Arg(CCU), competitive growth, 37 C, YPD
Fewer inactive variants are shown than the library holds.
property: yeast fitness

# mutation descriptor, property, reported
records = [
    ("U3G A20C A21G C61A", "yeast fitness", "≤ 0.5"),
    ("G25A A36U C46G C62A A69C", "yeast fitness", "≤ 0.5"),
    ("U16C C24G C30G A36U C66U", "yeast fitness", "≤ 0.5"),
]
